Would you mind telling me the reported TGI of each entry?
- Tested on: CAKI-1 renal
- EXPERIMENT: NCI tumour cell line growth inhibition, 48 h
Provide the reading as a plain figure in µM.

# return TGI of COc1ccc(P2(=S)Oc3ccc(C(c4ccccc4)(c4ccccc4)c4ccccc4)cc3O2)cc1 (stereo not given) (system: CAKI-1 renal) 33.9

# return TGI of Nc1cc2c(nc3c4ccccc4c(N)cc3[n+]2-c2cccc3ccccc23)c2ccccc12 (tested in a mixture with another compound) (system: CAKI-1 renal) 14.6

----------
- System: M14 melanoma
- EXPERIMENT: NCI tumour cell line growth inhibition, 48 h
OBSERVED_PROPERTY: TGI

# return TGI of N#CC(=N)c1ncn(CCO)c1NC(=O)C(F)(F)F (system: M14 melanoma) > 100 µM

# return TGI of Cc1nn2c(C(=O)N/N=C/c3ccccc3O)c(C)nc2s1 (system: M14 melanoma) > 100 µM

# return TGI of COc1ccc(NC(=O)C2C(=O)N(c3ccc(OC)cc3)C(=O)/C2=N\N)cc1 (stereo not given) (system: M14 melanoma) > 100 µM

# return TGI of NC(=O)C1(c2ccccc2)Nc2ccccc2S1 (stereo not given) (system: M14 melanoma) > 100 µM

# return TGI of CCCc1cc(=O)oc2c3c(c4c(c12)OC(C)(C)CC4)O[C@H](C)[C@@H](C)[C@H]3O (system: M14 melanoma) 37.2 µM

----------
- Test system: MDA-MB-231 breast
- EXPERIMENT: NCI tumour cell line growth inhibition, 48 h
Would you mind telling me the reported TGI of each entry?

Report TGI for c1cc(-c2ccsc2-c2ccsc2)cs1 > 100 µM

Report TGI for Cc1ccc(C2=C(c3ccc(C)cc3)C3(c4ccc(C)cc4)[C@@H](C#N)[C@H](C#N)C2(c2ccc(C)cc2)S3=O)cc1 (stereo not given in full) > 100 µM

Report TGI for Cc1cc(C)c(OC(=O)Nc2cccc3ccccc23)c(-c2ccccc2)c1 > 100 µM

Report TGI for COC1CC(OC2C(C)OC(OC3C(C)OC(OC4C(C)OC(O[C@H]5CC[C@@]6(C)C(=CC[C@]7(O)[C@@H]6C[C@@H](OC(=O)/C=C/c6ccccc6)[C@@]6(C)[C@]7(O)CC[C@@]6(O)C(C)=O)C5)CC4OC)CC3OC)CC2OC)OC(C)C1O (stereo not given in full) > 12.5 µM

Report TGI for COc1ccc(-c2cc(-c3ccc(Nc4ccnc5cc(C(F)(F)F)ccc45)cc3)nc(N)c2C#N)cc1 > 100 µM

----------
- System: LXFL 529 NSCLC
- EXPERIMENT: NCI tumour cell line growth inhibition, 48 h
Would you mind telling me the reported TGI of each entry?

Report TGI for C=CCC12CC(=O)CCC1CC(=O)C2 (centres undefined) > 100 µM

Report TGI for Cc1noc(C)c1C1=CCCCc2ccccc21 > 100 µM

Report TGI for CCOC(=O)C1C(=O)C(C(=O)OCC)C(c2ccccc2)N(C)C1c1ccccc1 (centres undefined) > 100 µM

Report TGI for O=C(/C(=C\c1ccccc1)CN1CCOCC1)c1ccc(Br)cc1 4.67 µM

Report TGI for Cc1cccc(C)c1NC(=O)C(=O)C(C#N)c1ccccc1Cl (centres undefined) > 100 µM

Report TGI for CCCCC#COS(=O)(=O)c1ccc(C)cc1 > 100 µM

Report TGI for CC(=O)[CH-]C(C)=O.CC(=O)[CH-]C(C)=O.[CH2-]CCCCCCC.[CH2-]CCCCCCC.[Sn+4] 30.1 µM

Report TGI for COc1ccc(CC#N)c(OCc2ccccc2)c1 67 µM

Report TGI for CCC(=C(C#N)C#N)c1cc(OC)c(OC)c(OC)c1 > 100 µM

----------
Would you mind telling me the reported TGI of each entry?
- Test system: HOP-92 NSCLC
- EXPERIMENT: NCI tumour cell line growth inhibition, 48 h

Report TGI for O=c1c2cccnc2[nH]c2ccc3[nH]ncc3c12 > 10 µM

Report TGI for COC1CC(OC2C(C)OC(OC3C(C)OC(OC4C(C)OC(O[C@H]5CC[C@@]6(C)C(=CC[C@]7(O)[C@@H]6C[C@@H](OC(=O)/C=C/c6ccccc6)[C@@]6(C)[C@]7(O)CC[C@@]6(O)C(C)=O)C5)CC4OC)CC3OC)CC2OC)OC(C)C1O (stereo partly drawn) > 12.5 µM

Report TGI for NC(CSS(=O)(=O)c1ccccc1)C(=O)O (stereo not drawn) > 10 µM

----------
- System: KM12 colon
- EXPERIMENT: NCI tumour cell line growth inhibition, 48 h
OBSERVED_PROPERTY: TGI

Report TGI for O=C(O)c1ccccc1CC1Cc2ccccc2C1 > 100 µM

Report TGI for NC(CSS(=O)(=O)c1ccccc1)C(=O)O (stereo not drawn) > 10 µM

Report TGI for Cc1ccc2c(c1)C(=O)c1[nH]c3ccc(F)cc3c1CO2 > 100 µM

----------
- Test system: DU-145 prostate
- EXPERIMENT: NCI tumour cell line growth inhibition, 48 h
OBSERVED_PROPERTY: TGI

Report TGI for COc1ccc(-c2cc(-c3cc(F)c(Cl)cc3Cl)[nH]n2)cc1OC > 100 µM

Report TGI for COc1ccc(C=Nc2c(O)ccc3ccccc23)cc1OC > 100 µM

Report TGI for CN1CCc2c(sc3ncn(N)c(=N)c23)C1 > 100 µM

----------
- System: UO-31 renal
- EXPERIMENT: NCI tumour cell line growth inhibition, 48 h
OBSERVED_PROPERTY: TGI

Report TGI for O=C(/C=C/c1ccc(OCCSCCCCCCCCCCSCCOc2ccc(/C=C/C(=O)c3ccc(Cl)cc3)cc2)cc1)c1ccc(Cl)cc1 > 100 µM

Report TGI for COC(=O)C(N)CSC(c1ccccc1)(c1ccccc1)c1ccccc1 (stereo not drawn) > 100 µM

Report TGI for COc1ccc(-c2cc(-c3cc(F)c(Cl)cc3Cl)[nH]n2)cc1OC > 100 µM

----------
- Test system: KM12 colon
- EXPERIMENT: NCI tumour cell line growth inhibition, 48 h; in the data active means GI50 below about 0.43 µM; inactive means the rest
The reply should be one of these categories: class 1 for active, class 0 for inactive

Short answer needed: outcome of this test for CN1CCN(c2ccc3nc(-c4c5cccccc-5[nH]c4=O)[nH]c3c2)CC1 ? class 1

Short answer needed: outcome of this test for C1CN1c1nc(N2CC2)nc(N2CC2)n1 ? class 0

Short answer needed: outcome of this test for C[C@]12CCC3c4ccc(O)cc4CCC3C1CC[C@@]2(O)C#Cc1ccc(C#C/C=C\C#Cc2ccccc2N)cc1 (some centres not stated) ? class 0

Short answer needed: outcome of this test for CN1CCN(CCn2c3c4ccccc4ccc3c3oc(=O)c4ccccc4c32)CC1 ? class 0

Short answer needed: outcome of this test for Cc1nc2cc(-n3c(-c4ccc(F)cc4)nc4ccccc4c3=O)ccc2n1Cc1ccccc1 ? class 0

Short answer needed: outcome of this test for O=C(Nc1cccc(-c2cccc(F)c2)c1)C1CCN(Cc2cccc3cccnc23)CC1 ? class 0

Short answer needed: outcome of this test for COc1cc(O)c2c(=O)c(OC)c(-c3ccc(OC)c(OC)c3)oc2c1.[Co] ? class 0

----------
- System: UO-31 renal
- EXPERIMENT: NCI tumour cell line growth inhibition, 48 h
Would you mind telling me the reported TGI of each entry?

Report TGI for COc1cccc(NC(=O)CC(=O)N2NC(c3ccccc3)C(N=Nc3cccc(C(=O)O)c3)C2=O)c1 (stereo unspecified) > 100 µM

Report TGI for Nc1nc2c(ncn2CC2CCC(CO)C2)c(=O)[nH]1 (stereo unspecified) > 100 µM

Report TGI for O=C1OC2C(O)COC2(O)C1(O)Cc1c[nH]c2ccccc12 (stereo unspecified) > 100 µM

Report TGI for Cc1ccc(C2=C(c3ccc(C)cc3)C3(c4ccc(C)cc4)[C@@H](C#N)[C@H](C#N)C2(c2ccc(C)cc2)S3=O)cc1 (stereo partly specified) > 100 µM

Report TGI for CC1(C)C(=O)/C(=C\c2ccccn2)C[C@]2(C)[C@H]3CC[C@@H]4[C@@H](C(=O)/C=C/c5ccccn5)CC[C@@]4(C)[C@]3(C)CC[C@@H]12 2.1 µM

Report TGI for CCc1n[nH]c(=O)n1NC(=O)CCCC(=O)O > 100 µM

Report TGI for O=c1[nH]nc(Cc2ccccc2)n1/N=C\CC/C=N\n1c(Cc2ccccc2)n[nH]c1=O > 100 µM

Report TGI for Cc1cc(C)c2c(=O)n(CN3CCC(C#N)(c4ccccc4)CC3)sc2n1 34.1 µM

Report TGI for COc1ccc2nc3cc(Cl)ccc3c(NCCCCCN3CCCCC3)c2c1 3.7 µM

Report TGI for COC1CC(OC2C(C)OC(OC3C(C)OC(OC4C(C)OC(O[C@H]5CC[C@@]6(C)C(=CC[C@]7(O)[C@@H]6C[C@@H](OC(=O)/C=C/c6ccccc6)[C@@]6(C)[C@]7(O)CC[C@@]6(O)C(C)=O)C5)CC4OC)CC3OC)CC2OC)OC(C)C1O (stereo partly specified) > 12.5 µM

Report TGI for CC(=O)[CH-]C(C)=O.CC(=O)[CH-]C(C)=O.[CH2-]CCCCCCC.[CH2-]CCCCCCC.[Sn+4] 34.8 µM

Report TGI for O=C1OCC2=C1C(c1cccc(Cl)c1)c1cc3c(cc1N2CCO)OCO3 (stereo unspecified) > 65.4 µM

Report TGI for Oc1ccc(N=Cc2ccc(C=Nc3ccc(O)cc3)cc2)cc1 34 µM

Report TGI for COc1ccc(S(=O)(=O)Nc2cc(/C=C\c3cc(OC)c(OC)c(OC)c3)cc(OC)c2OC)cc1 85.3 µM

Report TGI for CC1=CC2CCC1(C)C/C2=C(/C)OC=O (stereo unspecified) > 100 µM

Report TGI for CC(C)(C)OC(=O)N1CCCC1=O > 10 µM
